molecular target: AEA-DA lipid probe targets in Neuro2a cells (Mus musculus, UniProt Q02819); conditions: competitor 25 μM
Sequence (Q02819 26-459): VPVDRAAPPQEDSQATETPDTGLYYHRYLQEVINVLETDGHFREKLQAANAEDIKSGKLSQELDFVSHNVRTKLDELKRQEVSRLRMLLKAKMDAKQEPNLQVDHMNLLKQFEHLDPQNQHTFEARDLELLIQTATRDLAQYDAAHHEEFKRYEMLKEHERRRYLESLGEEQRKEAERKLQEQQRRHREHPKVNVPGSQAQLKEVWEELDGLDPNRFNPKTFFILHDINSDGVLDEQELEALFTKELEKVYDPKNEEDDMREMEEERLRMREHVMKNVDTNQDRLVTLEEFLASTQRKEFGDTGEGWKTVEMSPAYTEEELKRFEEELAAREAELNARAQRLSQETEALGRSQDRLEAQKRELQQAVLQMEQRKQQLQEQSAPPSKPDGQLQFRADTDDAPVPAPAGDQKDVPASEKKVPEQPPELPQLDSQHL
measured attribute: SILAC ratio, Nucb1
Please give the numeric answer without any surrounding text.

Recorded SILAC ratio, Nucb1, per entry:
molecule	test target	SILAC ratio, Nucb1
O=C(/C=C/c1cccnc1)NCCCCC1CCN(C(=O)c2ccccc2)CC1 [FK-866, reference compound]	AEA-DA lipid probe targets in Neuro2a cells (Mus musculus, UniProt Q02819)	1.2
CN1CCN(C(=O)c2[nH]c3ccc([N+](=O)[O-])cc3c2-c2ccccc2)CC1	AEA-DA lipid probe targets in Neuro2a cells (Mus musculus, UniProt Q02819)	4.7
C=CCN(C)CCCCCCOc1ccc(C(=O)c2ccc(Br)cc2)c(F)c1 [Ro 48-8071, reference compound]	AEA-DA lipid probe targets in Neuro2a cells (Mus musculus, UniProt Q02819)	0.9

Here is another molecule to look at.
What value of SILAC ratio, Nucb1 has been recorded for this entry: CN1CCN(C(=O)c2c(-c3ccccc3)c3cc([N+](=O)[O-])ccc3n2C)CC1
3.4

###

SILAC ratio Eef1d overview
target: AEA-DA lipid probe targets in Neuro2a cells (Mus musculus, UniProt P57776); details: competitor 25 μM
Sequence (P57776 whole entry): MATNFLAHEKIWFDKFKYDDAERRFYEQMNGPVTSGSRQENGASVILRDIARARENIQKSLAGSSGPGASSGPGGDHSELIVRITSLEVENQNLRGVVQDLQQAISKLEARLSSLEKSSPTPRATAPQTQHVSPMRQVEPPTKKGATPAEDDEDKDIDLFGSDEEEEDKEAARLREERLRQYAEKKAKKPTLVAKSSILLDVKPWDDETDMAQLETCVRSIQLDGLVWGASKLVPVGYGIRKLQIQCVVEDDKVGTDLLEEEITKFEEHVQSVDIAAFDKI

Recorded SILAC ratio Eef1d, per entry:
molecule	measured attribute	result
O=C(/C=C/c1cccnc1)NCCCCC1CCN(C(=O)c2ccccc2)CC1 [FK-866, reference compound]	SILAC ratio Eef1d	1.2
CN1CCN(C(=O)c2[nH]c3ccc([N+](=O)[O-])cc3c2-c2ccccc2)CC1 [MJN228]	SILAC ratio Eef1d	1.3
CN1CCN(C(=O)c2c(-c3ccccc3)c3cc([N+](=O)[O-])ccc3n2C)CC1 [KML110]	SILAC ratio Eef1d	1.4

What value of SILAC ratio Eef1d has been recorded for this entry: C=CCN(C)CCCCCCOc1ccc(C(=O)c2ccc(Br)cc2)c(F)c1 [Ro 48-8071, reference compound]
0.9

###

SILAC ratio, Emd overview
target: AEA-DA lipid probe targets in Neuro2a cells (Mus musculus, UniProt O08579); settings: competitor 25 μM
Sequence (O08579 whole entry): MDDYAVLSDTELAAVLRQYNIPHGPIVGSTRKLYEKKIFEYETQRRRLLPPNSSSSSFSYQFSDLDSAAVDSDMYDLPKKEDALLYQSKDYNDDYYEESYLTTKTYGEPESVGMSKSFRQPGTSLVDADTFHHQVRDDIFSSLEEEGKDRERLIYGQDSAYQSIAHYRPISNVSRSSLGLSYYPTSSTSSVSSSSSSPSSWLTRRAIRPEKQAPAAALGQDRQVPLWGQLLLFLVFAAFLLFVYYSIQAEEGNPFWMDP
Please give the numeric answer without any surrounding text.

Recorded SILAC ratio, Emd, per entry:
compound	number
CN1CCN(C(=O)c2[nH]c3ccc([N+](=O)[O-])cc3c2-c2ccccc2)CC1	2.4
C=CCN(C)CCCCCCOc1ccc(C(=O)c2ccc(Br)cc2)c(F)c1 [Ro 48-8071, reference compound]	1.3
O=C(/C=C/c1cccnc1)NCCCCC1CCN(C(=O)c2ccccc2)CC1 [FK-866, reference compound]	1.4

// lookup SILAC ratio, Emd | system=AEA-DA lipid probe targets in Neuro2a cells (Mus musculus, UniProt O08579) | key= CN1CCN(C(=O)c2c(-c3ccccc3)c3cc([N+](=O)[O-])ccc3n2C)CC1
1.7

###

target: AEA-DA lipid probe targets in Neuro2a cells (Mus musculus); details: competitor 25 μM
measured attribute: SILAC ratio, Rab11a
Please give the numeric answer without any surrounding text.

compound	SILAC ratio, Rab11a
CN1CCN(C(=O)c2[nH]c3ccc([N+](=O)[O-])cc3c2-c2ccccc2)CC1	1.6
CN1CCN(C(=O)c2c(-c3ccccc3)c3cc([N+](=O)[O-])ccc3n2C)CC1	1.6
O=C(/C=C/c1cccnc1)NCCCCC1CCN(C(=O)c2ccccc2)CC1 [FK-866, reference compound]	1.2

Here is another compound to look at.
What value of SILAC ratio, Rab11a has been recorded for this entry: C=CCN(C)CCCCCCOc1ccc(C(=O)c2ccc(Br)cc2)c(F)c1 [Ro 48-8071, reference compound]
1.3
